Tested on: HIV-1 IIIB
assayText: Anti-HIV-1 activity in MT-4 cells (MTT assay)
Format: cell-based
setupConditions: Human immunodeficiency virus 1, IIIB, MT4, 120 h, read-out: EC50 HIV-1 IIIB
quantity: pEC50
Numbers only, as −log10 of the molar value.

pEC50 for Cc1[nH]c2ccccc2c1CC(=O)NC(Cc1ccccc1)C(=O)N(C)c1ccccc1 (stereo not shown) [PF74, reference compound] is 5.97

* * *

Tested on: HIV-1 IIIB
assayText: Anti-HIV-1 activity in MT-4 cells (MTT assay)
Format: cell-based
setupConditions: Human immunodeficiency virus 1, IIIB, MT4, 120 h; MT-4 cells, 50% protection against HIV-induced cytopathic effect, MTT, five days after infection; read-out: EC50 HIV-1 IIIB
Protocol: The antiviral activities and cytotoxicities of the target compounds were tested using MT-4 cells infected by HIV-1 IIIB or HIV-2 ROD. […] PF74 was utilized as the control drug in this assay.
I'd appreciate it if you could supply pEC50 values for the items below.
Answers are plain numbers, as −log10 of the molar value.

[
  {
    "compoundStructureString": "COc1ccc(N(C)C(=O)[C@H](Cc2ccccc2)NC(=O)Cn2ccc(NC(=O)c3ccc(C)cc3)cc2=O)cc1",
    "assayedTarget": "HIV-1 IIIB",
    "pEC50": 4.59
  }
]

With those in mind, consider the next compound.
pEC50 for COC(=O)c1ccc(C(=O)Nc2ccn(CC(=O)N[C@@H](Cc3ccccc3)C(=O)N(C)c3ccc(OC)cc3)c(=O)c2)cc1 is 4.72

* * *

Tested on: HIV-2 ROD
assayText: Anti-HIV-2 activity in MT-4 cells (MTT assay)
Assay type: cell-based
setupConditions: Human immunodeficiency virus 2, MT4, 120 h; MT-4 cells, 50% protection against HIV-induced cytopathic effect, MTT, five days after infection; read-out: EC50 HIV-2 ROD
I'd appreciate it if you could supply EC50 values for the items below.
Numbers only, in µM.

// known answers, use as guide
[
  {
    "molecule": "COc1ccc(N(C)C(=O)[C@H](Cc2ccccc2)NC(=O)Cn2ccc(NC(=O)c3cccc(F)c3)cc2=O)cc1 [TD-1c]",
    "EC50 [µM]": 6.59
  },
  {
    "molecule": "COc1ccc(N(C)C(=O)[C@H](Cc2ccccc2)NC(=O)Cn2ccc(N)cc2=O)cc1 [TC-2]",
    "EC50 [µM]": 19.7
  }
]

List EC50 for every entry below, keeping the order given.
1. COc1ccc(C(=O)Nc2ccn(CC(=O)N[C@@H](Cc3ccccc3)C(=O)N(C)c3ccc(OC)cc3)c(=O)c2)cc1 [TD-1h]
2. COc1ccc(N(C)C(=O)[C@H](Cc2ccccc2)NC(=O)Cn2ccc(NC(=O)c3ccccc3)cc2=O)cc1 [TD-1a]
3. COc1ccc(N(C)C(=O)[C@H](Cc2ccccc2)NC(=O)Cn2ccc(NC(=O)c3ccc(C#N)cc3)cc2=O)cc1 [TD-1j]

Completion:
1: 10.7; 2: 4.86; 3: 17.8

* * *

I'd appreciate it if you could supply solubility values for the items below.
assayText: Water solubility assay in phosphate buffer (HPLC)
Format: physicochemical
setupConditions: aqueous buffer, thermodynamic from solid; phosphate buffer pH 7, saturated solution, HPLC; read-out: Solubility pH 7
Numbers only, in µg/mL.

[
  {
    "compound": "COc1ccc(N(C)C(=O)[C@H](Cc2cc(F)cc(F)c2)NC(=O)Cn2ccc(N)cc2=O)cc1 [FTC-2]",
    "value": 261
  },
  {
    "compound": "COc1ccc(N(C)C(=O)[C@H](Cc2ccccc2)NC(=O)Cn2ccc(NC(=O)c3ccccc3)cc2=O)cc1 [TD-1a]",
    "value": 5.07
  }
]

solubility for Cc1[nH]c2ccccc2c1CC(=O)NC(Cc1ccccc1)C(=O)N(C)c1ccccc1 (stereo not drawn) [PF74, reference compound] is 1.44
